Details: in ethyl acetate, 288.05 K

- Structure Smiles String: "COc1ccc(C(=O)O)cc1OC"
  solubility (mole fraction): 0.0052

----------
Conditions: in isopropanol, 308.27 K
Measured Quantity: solubility (mole fraction)

- Structure Smiles String: "COc1ccc(C(=O)O)cc1OC"
  Data Value: 0.0095

----------
Settings: in methyl acetate, 303.13 K

- Structure Smiles String: "COc1ccc(C(=O)O)cc1OC"
  solubility (mole fraction): 0.0095

----------
Settings: in ethyl acetate, 278.3 K
Measured Quantity: solubility (mole fraction)

- Structure Smiles String: "COc1ccc(C(=O)O)cc1OC"
  Measured Quantity: "solubility (mole fraction)"
  Data Value: 0.0037

----------
Details: in n-butanol, 283.25 K
Measured Quantity: solubility (mole fraction)

- Structure Smiles String: "COc1ccc(C(=O)O)cc1OC"
  Data Value: 0.003

----------
Details: in ethanol, 313.3 K
Measured Quantity: solubility (mole fraction)

- Structure Smiles String: "COc1ccc(C(=O)O)cc1OC"
  Data Value: 0.0136

----------
Details: in ethanol, 317.15 K

- Structure Smiles String: "COc1ccc(C(=O)O)cc1OC"
  solubility (mole fraction): 0.0161

----------
Settings: in 2-butanone, 313.05 K

- Structure Smiles String: "COc1ccc(C(=O)O)cc1OC"
  solubility (mole fraction): 0.0184

----------
Conditions: in isopropanol, 303.17 K

- Structure Smiles String: "COc1ccc(C(=O)O)cc1OC"
  solubility (mole fraction): 0.0074

----------
Conditions: in methyl acetate, 318.06 K
Measured Quantity: solubility (mole fraction)

- Structure Smiles String: "COc1ccc(C(=O)O)cc1OC"
  Data Value: 0.0152

----------
Conditions: in n-propanol, 288.39 K
Measured Quantity: solubility (mole fraction)

- Structure Smiles String: "COc1ccc(C(=O)O)cc1OC"
  Measured Quantity: "solubility (mole fraction)"
  Data Value: 0.0042

----------
Conditions: in ethyl acetate, 313.15 K

- Structure Smiles String: "COc1ccc(C(=O)O)cc1OC"
  solubility (mole fraction): 0.0116

----------
Settings: in methyl acetate, 298 K

- Structure Smiles String: "COc1ccc(C(=O)O)cc1OC"
  solubility (mole fraction): 0.008

----------
Details: in methyl acetate, 283.01 K

- Structure Smiles String: "COc1ccc(C(=O)O)cc1OC"
  solubility (mole fraction): 0.0049

----------
Conditions: in ethyl acetate, 323.37 K
Measured Quantity: solubility (mole fraction)

- Structure Smiles String: "COc1ccc(C(=O)O)cc1OC"
  Data Value: 0.0157

----------
Conditions: in ethanol, 282.93 K
Measured Quantity: solubility (mole fraction)

- Structure Smiles String: "COc1ccc(C(=O)O)cc1OC"
  Data Value: 0.0042

----------
Settings: in n-propanol, 303.17 K
Measured Quantity: solubility (mole fraction)

- Structure Smiles String: "COc1ccc(C(=O)O)cc1OC"
  Data Value: 0.0079

----------
Details: in ethyl acetate, 298 K
Measured Quantity: solubility (mole fraction)

- Structure Smiles String: "COc1ccc(C(=O)O)cc1OC"
  Measured Quantity: "solubility (mole fraction)"
  Data Value: 0.0072

----------
Details: in n-butanol, 308.1 K
Measured Quantity: solubility (mole fraction)

- Structure Smiles String: "COc1ccc(C(=O)O)cc1OC"
  Data Value: 0.0089

----------
Settings: in isobutanol, 293.04 K
Measured Quantity: solubility (mole fraction)

- Structure Smiles String: "COc1ccc(C(=O)O)cc1OC"
  Data Value: 0.0032

----------
Settings: in n-butanol, 323.33 K

- Structure Smiles String: "COc1ccc(C(=O)O)cc1OC"
  solubility (mole fraction): 0.0168

----------
Conditions: in ethanol, 323.3 K
Measured Quantity: solubility (mole fraction)

- Structure Smiles String: "COc1ccc(C(=O)O)cc1OC"
  Measured Quantity: "solubility (mole fraction)"
  Data Value: 0.0203

----------
Details: in isopropanol, 278.37 K

- Structure Smiles String: "COc1ccc(C(=O)O)cc1OC"
  solubility (mole fraction): 0.0024

----------
Settings: in ethyl acetate, 308.07 K

- Structure Smiles String: "COc1ccc(C(=O)O)cc1OC"
  solubility (mole fraction): 0.0099

----------
Conditions: in ethanol, 303.33 K

- Structure Smiles String: "COc1ccc(C(=O)O)cc1OC"
  solubility (mole fraction): 0.0093

----------
Details: in n-butanol, 293.04 K
Measured Quantity: solubility (mole fraction)

- Structure Smiles String: "COc1ccc(C(=O)O)cc1OC"
  Data Value: 0.0046

----------
Conditions: in n-butanol, 298.15 K

- Structure Smiles String: "COc1ccc(C(=O)O)cc1OC"
  solubility (mole fraction): 0.0057

----------
Conditions: in 2-butanone, 318.15 K

- Structure Smiles String: "COc1ccc(C(=O)O)cc1OC"
  solubility (mole fraction): 0.0212

----------
Settings: in isopropanol, 313.13 K

- Structure Smiles String: "COc1ccc(C(=O)O)cc1OC"
  solubility (mole fraction): 0.0118

----------
Details: in water, 333.15 K
Measured Quantity: solubility (mole fraction)

- Structure Smiles String: "O=C(O)c1cc(O)c(O)c(O)c1"
  Measured Quantity: "solubility (mole fraction)"
  Data Value: 0.00693

----------
Settings: in isobutanol, 298.15 K

- Structure Smiles String: "COc1ccc(C(=O)O)cc1OC"
  solubility (mole fraction): 0.0041

----------
Conditions: in ethanol, 293.08 K

- Structure Smiles String: "COc1ccc(C(=O)O)cc1OC"
  solubility (mole fraction): 0.0062

----------
Settings: in water, 318.15 K
Measured Quantity: solubility (mole fraction)

- Structure Smiles String: "O=C(O)c1cc(O)c(O)c(O)c1"
  Data Value: 0.00328

----------
Conditions: in 2-butanone, 287.95 K

- Structure Smiles String: "COc1ccc(C(=O)O)cc1OC"
  solubility (mole fraction): 0.0089

----------
Details: in isobutanol, 323.33 K
Measured Quantity: solubility (mole fraction)

- Structure Smiles String: "COc1ccc(C(=O)O)cc1OC"
  Measured Quantity: "solubility (mole fraction)"
  Data Value: 0.0132

----------
Settings: in n-butanol, 313.15 K

- Structure Smiles String: "COc1ccc(C(=O)O)cc1OC"
  solubility (mole fraction): 0.011

----------
Settings: in isopropanol, 318.15 K
Measured Quantity: solubility (mole fraction)

- Structure Smiles String: "COc1ccc(C(=O)O)cc1OC"
  Measured Quantity: "solubility (mole fraction)"
  Data Value: 0.015

----------
Conditions: in 2-butanone, 298.13 K

- Structure Smiles String: "COc1ccc(C(=O)O)cc1OC"
  solubility (mole fraction): 0.012

----------
Conditions: in water, 308.21 K

- Structure Smiles String: "O=C(O)c1cc(O)c(O)c(O)c1"
  solubility (mole fraction): 0.0019

----------
Conditions: in isobutanol, 318.01 K

- Structure Smiles String: "COc1ccc(C(=O)O)cc1OC"
  solubility (mole fraction): 0.0105

----------
Conditions: in water, 292.18 K

- Structure Smiles String: "O=C(O)c1cc(O)c(O)c(O)c1"
  solubility (mole fraction): 0.00098

----------
Settings: in water, 323.15 K

- Structure Smiles String: "O=C(O)c1cc(O)c(O)c(O)c1"
  solubility (mole fraction): 0.00427

----------
Details: in ethanol, 298 K
Measured Quantity: solubility (mole fraction)

- Structure Smiles String: "COc1ccc(C(=O)O)cc1OC"
  Data Value: 0.0074

----------
Conditions: in water, 298 K

- Structure Smiles String: "O=C(O)c1cc(O)c(O)c(O)c1"
  solubility (mole fraction): 0.0011

----------
Conditions: in isobutanol, 308.1 K

- Structure Smiles String: "COc1ccc(C(=O)O)cc1OC"
  solubility (mole fraction): 0.0066

----------
Conditions: in ethanol, 278.15 K
Measured Quantity: solubility (mole fraction)

- Structure Smiles String: "COc1ccc(C(=O)O)cc1OC"
  Data Value: 0.0035

----------
Details: in isopropanol, 283.05 K
Measured Quantity: solubility (mole fraction)

- Structure Smiles String: "COc1ccc(C(=O)O)cc1OC"
  Measured Quantity: "solubility (mole fraction)"
  Data Value: 0.003

----------
Details: in n-propanol, 299 K
Measured Quantity: solubility (mole fraction)

- Structure Smiles String: "COc1ccc(C(=O)O)cc1OC"
  Data Value: 0.0066

----------
Conditions: in methyl acetate, 308.07 K

- Structure Smiles String: "COc1ccc(C(=O)O)cc1OC"
  solubility (mole fraction): 0.0111

----------
Conditions: in ethyl acetate, 293.15 K

- Structure Smiles String: "COc1ccc(C(=O)O)cc1OC"
  solubility (mole fraction): 0.0061

----------
Conditions: in 2-butanone, 303.15 K

- Structure Smiles String: "COc1ccc(C(=O)O)cc1OC"
  solubility (mole fraction): 0.014

----------
Conditions: in isobutanol, 302.94 K
Measured Quantity: solubility (mole fraction)

- Structure Smiles String: "COc1ccc(C(=O)O)cc1OC"
  Data Value: 0.0052
